These data points were gathered from patent US20170189507A1.

Biological target: HLA-A*24 (human)
Assay: UV-ligand exchange ELISA
measurement type: peptide exchange yield

[[record]]
binder = "IYTMIYRNL [peptide SEQ ID No 210]"
result = "> 75%"

[[record]]
binder = "IYLVSIPEL [peptide SEQ ID No 161]"
result = "> 75%"

[[record]]
binder = "KYTSWYVAL [peptide SEQ ID No 228]"
result = "> 75%"

[[record]]
binder = "EYQENFLSF [peptide SEQ ID No 206]"
result = "50 to 75%"

[[record]]
binder = "EYNQWFTKL [peptide SEQ ID No 176]"
result = "50 to 75%"

